self-cleavage listing for selected variants.
B1: Osa-1-4 twister ribozyme (parent)
chain: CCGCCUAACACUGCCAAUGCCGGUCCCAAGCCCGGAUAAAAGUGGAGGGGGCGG

variants of: B1; test: self-cleavage, relative activity (ratio to wild type); higher = more cleavage; co-transcriptional
Assay metric: self-cleavage

>>> test_result("C33U G48A")
0.07
>>> test_result("A40U G54U")
0.47
>>> test_result("G47C G51A")
0.09
>>> test_result("A39U U43C")
0.12
>>> test_result("A8G G51U")
0.11
>>> test_result("C14U U37A")
0.5
>>> test_result("C21U G35C")
0.1
>>> test_result("A40U G42A")
0.1
>>> test_result("C52U G51A")
0.88
>>> test_result("A36G G13U")
0.03
>>> test_result("C31U G34C")
0.24
>>> test_result("C33U G51C")
0.08
>>> test_result("A46C C14G")
0.03
>>> test_result("A46U C9U")
0.04
>>> test_result("C31A G48A")
0.02
>>> test_result("A8U")
0.49
>>> test_result("C11U C27A")
0.14
>>> test_result("A41C C20U")
0.95
>>> test_result("A36U U12C")
0.58
>>> test_result("A7G U37C")
0.46
>>> test_result("G23U U12G")
0.05
>>> test_result("A8C U43A")
0.08
>>> test_result("C27G U43C")
0.06
>>> test_result("A38U G49A")
0.12
>>> test_result("A38G G35C")
0.26
>>> test_result("C25U C33U")
0.31
>>> test_result("C14A G23U")
0.02
>>> test_result("A16C A39G")
0.95
>>> test_result("G48U G53U")
0.08
>>> test_result("A38G C52U")
0.95
>>> test_result("C14G G49U")
0.03
>>> test_result("A28U A29G")
0.08
>>> test_result("G54C U24C")
0.11
>>> test_result("C11G C52U")
0.73
>>> test_result("G45U U24G")
0.02
>>> test_result("G54U U43C")
0.7
>>> test_result("A28G G49A")
0.06
>>> test_result("C52G G22C")
0.09
>>> test_result("A39G G51C")
0.09
>>> test_result("A39U A40C")
0.12
>>> test_result("A28U C27G")
0.05
>>> test_result("U18A U43G")
0.58
>>> test_result("G35U G54U")
0.8
>>> test_result("A17G G47U")
0.43
>>> test_result("C9A G42U")
0.03
>>> test_result("C21U C9U")
0.92
>>> test_result("A39U G48U")
0.06
>>> test_result("A39C G23C")
0.04
>>> test_result("C33G G50C")
0.05
>>> test_result("C32G G44C")
0.07
>>> test_result("A41G G45U")
0.09
>>> test_result("C15A")
0.61
>>> test_result("A39C C32U")
0.08
>>> test_result("G22U G35U")
0.41
>>> test_result("C26U C32G")
0.27
>>> test_result("G54A U18A")
0.88
>>> test_result("A8G U37G")
0.75
>>> test_result("G50U G53A")
0.61
>>> test_result("A17C G44A")
0.81
>>> test_result("A16G C25U")
0.94
>>> test_result("A41U G50C")
0.99
>>> test_result("C33A G48A")
0.04
>>> test_result("A10U G50A")
0.05
>>> test_result("A17C G51U")
0.22
